test: Growth inhibition of human HCT15 cells assessed as cell growth at 10^-7 M incubated for 48 hrs by sulforhodamine B assay; assay type: functional; conditions: HCT-15, 48 h, read-out: Activity
# growth at 0.1 µM per entry

smilesRepresentation: Fc1ccc(-c2nc(Nc3ccc(-c4nc5ccccc5[nH]4)cc3)nc(N3CCOCC3)n2)cc1
growth at 0.1 µM / %: 98
--
smilesRepresentation: Clc1ccc(-c2nc(Nc3ccc(-c4nc5ccccc5[nH]4)cc3)nc(N3CCOCC3)n2)cc1
growth at 0.1 µM / %: 91
--
smilesRepresentation: c1ccc(-c2nc(Nc3ccc(-c4nc5ccccc5[nH]4)cc3)nc(N3CCOCC3)n2)cc1
growth at 0.1 µM / %: 92
--
smilesRepresentation: c1ccc2[nH]c(-c3ccc(Nc4nc(N5CCCCC5)nc(N5CCOCC5)n4)cc3)nc2c1
growth at 0.1 µM / %: 92

###

test system: EKVX; experiment: Growth inhibition of human EKVX cells incubated for 48 hrs by sulforhodamine B assay; type: functional; conditions: read-out: pGI50 (converted)
# GI50 per entry

smilesRepresentation: c1ccc(-c2nc(Nc3ccc(-c4nc5ccccc5[nH]4)cc3)nc(N3CCOCC3)n2)cc1
tgt: EKVX
scaleUnit: nM
GI50: 1580
--
smilesRepresentation: Clc1ccc(-c2nc(Nc3ccc(-c4nc5ccccc5[nH]4)cc3)nc(N3CCOCC3)n2)cc1
tgt: EKVX
scaleUnit: nM
GI50: 1150
--
smilesRepresentation: Fc1ccc(-c2nc(Nc3ccc(-c4nc5ccccc5[nH]4)cc3)nc(N3CCOCC3)n2)cc1
tgt: EKVX
scaleUnit: nM
GI50: 2630
--
smilesRepresentation: c1ccc2[nH]c(-c3ccc(Nc4nc(N5CCCCC5)nc(N5CCOCC5)n4)cc3)nc2c1
tgt: EKVX
scaleUnit: nM
GI50: 2690

###

# GI50 per entry
system: ACHN; test: Growth inhibition of human ACHN cells incubated for 48 hrs by sulforhodamine B assay; assay type: functional; details: read-out: pGI50 (converted)
propertyLabel: GI50

smilesRepresentation: Clc1ccc(-c2nc(Nc3ccc(-c4nc5ccccc5[nH]4)cc3)nc(N3CCOCC3)n2)cc1
readoutValue: 1050 nM

smilesRepresentation: c1ccc2[nH]c(-c3ccc(Nc4nc(N5CCCCC5)nc(N5CCOCC5)n4)cc3)nc2c1
readoutValue: 3160 nM

smilesRepresentation: c1ccc(-c2nc(Nc3ccc(-c4nc5ccccc5[nH]4)cc3)nc(N3CCOCC3)n2)cc1
readoutValue: 1260 nM

smilesRepresentation: Fc1ccc(-c2nc(Nc3ccc(-c4nc5ccccc5[nH]4)cc3)nc(N3CCOCC3)n2)cc1
readoutValue: 2570 nM

###

test system: NCI-H23; experiment: Growth inhibition of human NCI-H23 cells assessed as cell growth at 10^-8 M incubated for 48 hrs by sulforhodamine B assay; format: functional; conditions: NCI-H23, 48 h, read-out: Activity
# growth at 0.01 µM per entry

smilesRepresentation: Fc1ccc(-c2nc(Nc3ccc(-c4nc5ccccc5[nH]4)cc3)nc(N3CCOCC3)n2)cc1
tgt: NCI-H23
growth at 0.01 µM / %: 94

smilesRepresentation: c1ccc2[nH]c(-c3ccc(Nc4nc(N5CCCCC5)nc(N5CCOCC5)n4)cc3)nc2c1
tgt: NCI-H23
growth at 0.01 µM / %: 98

smilesRepresentation: Clc1ccc(-c2nc(Nc3ccc(-c4nc5ccccc5[nH]4)cc3)nc(N3CCOCC3)n2)cc1
tgt: NCI-H23
growth at 0.01 µM / %: 97

smilesRepresentation: c1ccc(-c2nc(Nc3ccc(-c4nc5ccccc5[nH]4)cc3)nc(N3CCOCC3)n2)cc1
tgt: NCI-H23
growth at 0.01 µM / %: 95

###

# growth at 1 µM per entry
test: Growth inhibition of human SF539 cells assessed as cell growth at 10^-6 M incubated for 48 hrs by sulforhodamine B assay; type: functional; conditions: SF-539, 48 h, read-out: Activity
propertyLabel: growth at 1 µM (%)

smilesRepresentation: c1ccc(-c2nc(Nc3ccc(-c4nc5ccccc5[nH]4)cc3)nc(N3CCOCC3)n2)cc1
scaleUnit: %
readoutValue: 74

smilesRepresentation: Clc1ccc(-c2nc(Nc3ccc(-c4nc5ccccc5[nH]4)cc3)nc(N3CCOCC3)n2)cc1
scaleUnit: %
readoutValue: 31

smilesRepresentation: Fc1ccc(-c2nc(Nc3ccc(-c4nc5ccccc5[nH]4)cc3)nc(N3CCOCC3)n2)cc1
scaleUnit: %
readoutValue: 80

smilesRepresentation: c1ccc2[nH]c(-c3ccc(Nc4nc(N5CCCCC5)nc(N5CCOCC5)n4)cc3)nc2c1
scaleUnit: %
readoutValue: 89

###

tested on: MCF7; experiment: Growth inhibition of human MCF7 cells incubated for 48 hrs by sulforhodamine B assay; assay type: functional; conditions: MCF7, 48 h, read-out: pGI50 (converted)
# GI50 per entry

smilesRepresentation: c1ccc(-c2nc(Nc3ccc(-c4nc5ccccc5[nH]4)cc3)nc(N3CCOCC3)n2)cc1
scaleUnit: nM
GI50: 871
//
smilesRepresentation: Fc1ccc(-c2nc(Nc3ccc(-c4nc5ccccc5[nH]4)cc3)nc(N3CCOCC3)n2)cc1
scaleUnit: nM
GI50: 2570
//
smilesRepresentation: Clc1ccc(-c2nc(Nc3ccc(-c4nc5ccccc5[nH]4)cc3)nc(N3CCOCC3)n2)cc1
scaleUnit: nM
GI50: 195
//
smilesRepresentation: c1ccc2[nH]c(-c3ccc(Nc4nc(N5CCCCC5)nc(N5CCOCC5)n4)cc3)nc2c1
scaleUnit: nM
GI50: 2400

###

# growth at 0.1 µM per entry
system: NCI-H460; test: Growth inhibition of human NCI-H460 cells assessed as cell growth at 10^-7 M incubated for 48 hrs by sulforhodamine B assay; format: functional; conditions: NCI-H460, 48 h, read-out: Activity

smilesRepresentation: Fc1ccc(-c2nc(Nc3ccc(-c4nc5ccccc5[nH]4)cc3)nc(N3CCOCC3)n2)cc1
tgt: NCI-H460
growth at 0.1 µM: 103%
//
smilesRepresentation: c1ccc(-c2nc(Nc3ccc(-c4nc5ccccc5[nH]4)cc3)nc(N3CCOCC3)n2)cc1
tgt: NCI-H460
growth at 0.1 µM: 103%
//
smilesRepresentation: Clc1ccc(-c2nc(Nc3ccc(-c4nc5ccccc5[nH]4)cc3)nc(N3CCOCC3)n2)cc1
tgt: NCI-H460
growth at 0.1 µM: 100%
//
smilesRepresentation: c1ccc2[nH]c(-c3ccc(Nc4nc(N5CCCCC5)nc(N5CCOCC5)n4)cc3)nc2c1
tgt: NCI-H460
growth at 0.1 µM: 98%

###

test system: A549; assay: Growth inhibition of human A549/ATCC cells incubated for 48 hrs by sulforhodamine B assay; format: functional; settings: A549, 48 h, read-out: pLC50 (the source's name) (converted)

smilesRepresentation: c1ccc(-c2nc(Nc3ccc(-c4nc5ccccc5[nH]4)cc3)nc(N3CCOCC3)n2)cc1
CC50: 8.32 µM
//
smilesRepresentation: c1ccc2[nH]c(-c3ccc(Nc4nc(N5CCCCC5)nc(N5CCOCC5)n4)cc3)nc2c1
CC50: > 100 µM
//
smilesRepresentation: Fc1ccc(-c2nc(Nc3ccc(-c4nc5ccccc5[nH]4)cc3)nc(N3CCOCC3)n2)cc1
CC50: > 100 µM
//
smilesRepresentation: Clc1ccc(-c2nc(Nc3ccc(-c4nc5ccccc5[nH]4)cc3)nc(N3CCOCC3)n2)cc1
CC50: 5.5 µM

###

# TGI per entry
test system: M14; test: Growth inhibition of human M14 cells incubated for 48 hrs by sulforhodamine B assay; assay type: functional; settings: M14, 48 h, read-out: pTGI (converted)
propertyLabel: TGI (µM)

smilesRepresentation: c1ccc2[nH]c(-c3ccc(Nc4nc(N5CCCCC5)nc(N5CCOCC5)n4)cc3)nc2c1
scaleUnit: µM
readoutValue: 4.68
//
smilesRepresentation: c1ccc(-c2nc(Nc3ccc(-c4nc5ccccc5[nH]4)cc3)nc(N3CCOCC3)n2)cc1
scaleUnit: µM
readoutValue: 2.88
//
smilesRepresentation: Clc1ccc(-c2nc(Nc3ccc(-c4nc5ccccc5[nH]4)cc3)nc(N3CCOCC3)n2)cc1
scaleUnit: µM
readoutValue: 1.48
//
smilesRepresentation: Fc1ccc(-c2nc(Nc3ccc(-c4nc5ccccc5[nH]4)cc3)nc(N3CCOCC3)n2)cc1
scaleUnit: µM
readoutValue: 4.07

###

test: Growth inhibition of human leukemia cells incubated for 48 hrs by sulforhodamine B assay; assay type: functional; conditions: Leukemia cell

smilesRepresentation: c1ccc(-c2nc(Nc3ccc(-c4nc5ccccc5[nH]4)cc3)nc(N3CCOCC3)n2)cc1
GI50, µM: 0.57
//
smilesRepresentation: Clc1ccc(-c2nc(Nc3ccc(-c4nc5ccccc5[nH]4)cc3)nc(N3CCOCC3)n2)cc1
GI50, µM: 0.19
//
smilesRepresentation: c1ccc2[nH]c(-c3ccc(Nc4nc(N5CCCCC5)nc(N5CCOCC5)n4)cc3)nc2c1
GI50, µM: 2.37
//
smilesRepresentation: Fc1ccc(-c2nc(Nc3ccc(-c4nc5ccccc5[nH]4)cc3)nc(N3CCOCC3)n2)cc1
GI50, µM: 2.02

Recorded values, source ChEMBL document CHEMBL3808334.
